Value source: the RNAGym collection of RNA variant scans (doi:10.7554/elife.80360)

B1: HDV Ribozyme (parent)
chain: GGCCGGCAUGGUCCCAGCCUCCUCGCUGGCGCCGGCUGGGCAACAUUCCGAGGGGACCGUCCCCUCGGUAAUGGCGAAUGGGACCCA

# Variants of: B1
# run.description: self-cleavage, relative activity (ratio to wild type); higher = more cleavage; co-transcriptional
Known self-cleavage of a selection of variants
measured.endpoint: self-cleavage

G39C G74A    0.36
G39U G74A    0.669
G11A C85G    0.678
A16U C64U    0.866
C24U A83C    0.219
A51C G80U    0.199
G10U A16G    0.618
G10C G67A    0.712
U23A G31A    0.489
C49U G82C    0.264
U46C U47G    0.703
U37A G82U    0.166
G59U C63A    0.935
G54U A78C    0.158
G11U C86G    0.199
G31U G67A    0.369
